System: Saccharomyces cerevisiae
experimentNotes: protein stability index of tFT-peptide fusion (C-terminal peptide) (PSI (0-1 scale)); higher = more stable (slower turnover)
measurementConditions: genetic background: das1 deletion; temperature: 30 C
reportedEndpoint: protein stability index
Field format: numeric only.

(Q) Recall and state the measured protein stability index for GSLLLYLLLKIL [INP54 C-terminal 12 aa] .
(A) 0.34

(Q) Please report the measured protein stability index for DDILSHGFEPLA [HTC1 C-terminal 12 aa]
(A) 0.718

(Q) Look up and report measured protein stability index for this entry: SLIDAKTGLPKE [MVD1 C-terminal 12 aa]
(A) 0.696

(Q) Tell me measured protein stability index for KTFWDKFWNVVA [CAN1 C-terminal 12 aa] please.
(A) 0.735

(Q) Answer with the recorded protein stability index for the sequence listed here: LNEPKDSAENKI [SRC1 C-terminal 12 aa]
(A) 0.696

(Q) Annotate the sequence CYQDYNHDHRSH [OSW2 C-terminal 12 aa] with its measured protein stability index.
(A) 0.715

(Q) Report protein stability index for GYIVGVAALLFL [ANS1 C-terminal 12 aa]
(A) 0.428

(Q) Supply measured protein stability index of ARAAEERMKKKY [VMS1 C-terminal 12 aa] in your reply.
(A) 0.671

(Q) Please report the measured protein stability index for FTAVLGTYLLTL [SDH3 C-terminal 12 aa]
(A) 0.649

(Q) Return value of protein stability index for input ACELLFENNIDM [PHO81 C-terminal 12 aa] , no commentary.
(A) 0.695

(Q) Please give measured protein stability index of the following entry: KAKSRREGTTRT [STU2 C-terminal 12 aa]
(A) 0.712

(Q) Given EIGHMYQKIKKS [MNN11 C-terminal 12 aa] , respond with its protein stability index.
(A) 0.721
